# Species: Rattus norvegicus
# PROTOCOL TEXT: Open TG-GATES - Regimen: Daily Repeat
# Assay type: toxicity, organism-based, Sprague-Dawley
# Design: regimen Daily Repeat, gender Male, age 6 weeks
# CONDITION LABEL: in vivo, po, 0 mg/kg, […], tissue Kidney, route gavage, dose level Control, time 28 day

| SMILES CODE | KIDNEY_R, g |
| --- | --- |
| C[C@](N)(Cc1ccc(O)c(O)c1)C(=O)O | 1.2 |
| CC(=O)Oc1cc(C(C)C)c(OCCN(C)C)cc1C | 1.5 |
| CC(C)(S)[C@@H](N)C(=O)O | 1.4 |
| C[C@]12CCC(=O)C=C1CC[C@@H]1[C@@H]2CC[C@@]2(C)[C@H]1CC[C@]2(C)O | 1.4 |
| CCc1oc2ccccc2c1C(=O)c1cc(I)c(O)c(I)c1 | 1.4 |

###

Overview of reported MCV across a group of compounds:
# Species: Rattus norvegicus
# PROTOCOL TEXT: Open TG-GATES - Regimen: Single
# Format: toxicity, organism-based, Sprague-Dawley
# Set-up: regimen Single, gender Male, age 6 weeks
# CONDITION LABEL: in vivo, po, 0 mg/kg, 3 h, tissue Blood, route gavage, dose level Control

| COMPOUND | MCV (fL) |
| --- | --- |
| CC(=N)S [THIOACETAMIDE] | 65.4 |
| CN1C(=O)OC(C)(C)C1=O [TRIMETHADIONE] | 65.1 |
| O=C(N[C@H](CO)[C@H](O)c1ccc([N+](=O)[O-])cc1)C(Cl)Cl [CHLORAMPHENICOL] | 63.8 |
| CC(C)C(=O)Nc1ccc([N+](=O)[O-])c(C(F)(F)F)c1 [FLUTAMIDE] | 64.5 |
| CCSCC[C@H](N)C(=O)O [ETHIONINE] | 62.9 |
| Oc1ncnc2[nH]ncc12 [ALLOPURINOL] | 65.1 |
| CCc1oc2ccccc2c1C(=O)c1cc(I)c(O)c(I)c1 [BENZIODARONE] | 65.5 |
| Nc1nc(N)c2nc(-c3ccccc3)c(N)nc2n1 | 64.6 |
| O=C(O)c1cccnc1 [NIACIN] | 63.7 |
| C[C@](N)(Cc1ccc(O)c(O)c1)C(=O)O [METHYLDOPA] | 66.5 |
| CC(=O)Oc1cc(C(C)C)c(OCCN(C)C)cc1C [MOXISYLYTE] | 61.6 |
| C#C[C@]1(O)CC[C@H]2[C@@H]3CCc4cc(O)ccc4[C@H]3CC[C@@]21C [ETHINYL ESTRADIOL] | 66 |
| CC(C)(S)[C@@H](N)C(=O)O [PENICILLAMINE] | 66.4 |
| CCN1CCCC1CNC(=O)c1cc(S(N)(=O)=O)ccc1OC (stereo not given) [SULPIRIDE] | 64.8 |
| C[C@]12CCC(=O)C=C1CC[C@@H]1[C@@H]2CC[C@@]2(C)[C@H]1CC[C@]2(C)O [METHYLTESTOSTERONE] | 63.3 |

###

# Species: Rattus norvegicus
# PROTOCOL TEXT: Open TG-GATES - Regimen: Single
# Assay type: toxicity, organism-based, Sprague-Dawley
# Design: regimen Single, gender Male, age 6 weeks
# CONDITION LABEL: in vivo, po, 0 mg/kg, 24 h, tissue Plasma, route gavage, dose level Control
Using TBIL as the sorting value, the categories are low end: < 0.04 mg/dL; middle: ≥ 0.04 mg/dL and < 0.1 mg/dL; high end: ≥ 0.1 mg/dL

| COMPOUND | ASSIGNED CATEGORY |
| --- | --- |
| CC(=O)Oc1cc(C(C)C)c(OCCN(C)C)cc1C [MOXISYLYTE] | low end |
| CN1C(=O)OC(C)(C)C1=O [TRIMETHADIONE] | middle |
| CCN1CCCC1CNC(=O)c1cc(S(N)(=O)=O)ccc1OC (centres undefined) [SULPIRIDE] | middle |
| C[C@]12CCC(=O)C=C1CC[C@@H]1[C@@H]2CC[C@@]2(C)[C@H]1CC[C@]2(C)O [METHYLTESTOSTERONE] | low end |
| CCc1oc2ccccc2c1C(=O)c1cc(I)c(O)c(I)c1 [BENZIODARONE] | high end |
| C[C@](N)(Cc1ccc(O)c(O)c1)C(=O)O [METHYLDOPA] | middle |
| CCC(C)(C)C(=O)O[C@H]1C[C@@H](C)C=C2C=C[C@H](C)[C@H](CC[C@@H]3C[C@@H](O)CC(=O)O3)[C@H]21 [SIMVASTATIN] | high end |
| C#C[C@]1(O)CC[C@H]2[C@@H]3CCc4cc(O)ccc4[C@H]3CC[C@@]21C [ETHINYL ESTRADIOL] | low end |
